tested on: NCI-H460; test: NCI tumour cell line growth inhibition, 48 h
Activity calls are given as the source filed them. No stated cut-off is given here; in the data, active = GI50 up to about 1.1 µM and inactive = higher.
Measurement Name: GI50

Reference set, count: 5
- Compound: "CCOP(=O)(OCC)C(C)(CC)NC(=O)C(C(F)(F)F)C(F)(F)F (stereo not given)"
  GI50: "> 100 µM (inactive)"
- Compound: "COC(=O)CCC1CCc2c(OC)ccc(O)c2C1=O (stereo not given)"
  GI50: "> 100 µM (inactive)"
- Compound: "N#CC1(C#N)C2CCCCC23OC(=N)C1(C#N)C(c1ccco1)O3 (stereo not given)"
  GI50: "25.8 µM (inactive)"
- Compound: "CN(C)/C=N/[C@@H](C(=O)O)c1ccccc1"
  GI50: "> 100 µM (inactive)"
- Compound: "COc1ccc(-c2cn3c(nc4ccccc43)c(C)n2)cc1"
  GI50: "60.1 µM (inactive)"

Next compound, please.
The reported GI50 of the compound C/N=C1\S/C(=N\c2ccc(N(C)C)cc2)N1C was 36.3 µM (inactive)

Entry source: ChEMBL document CHEMBL1201862
